target: Hypoxia-inducible factor 1-alpha (Homo sapiens); test: Inhibition of HIF-1alpha (unknown origin) transcriptional activity expressed in HEK293T cells co-transfected with renilla and HRE-firelfly luciferase incubated for 24 hrs by dual luciferase reporter gene assay
Sequence (Q16665 whole entry): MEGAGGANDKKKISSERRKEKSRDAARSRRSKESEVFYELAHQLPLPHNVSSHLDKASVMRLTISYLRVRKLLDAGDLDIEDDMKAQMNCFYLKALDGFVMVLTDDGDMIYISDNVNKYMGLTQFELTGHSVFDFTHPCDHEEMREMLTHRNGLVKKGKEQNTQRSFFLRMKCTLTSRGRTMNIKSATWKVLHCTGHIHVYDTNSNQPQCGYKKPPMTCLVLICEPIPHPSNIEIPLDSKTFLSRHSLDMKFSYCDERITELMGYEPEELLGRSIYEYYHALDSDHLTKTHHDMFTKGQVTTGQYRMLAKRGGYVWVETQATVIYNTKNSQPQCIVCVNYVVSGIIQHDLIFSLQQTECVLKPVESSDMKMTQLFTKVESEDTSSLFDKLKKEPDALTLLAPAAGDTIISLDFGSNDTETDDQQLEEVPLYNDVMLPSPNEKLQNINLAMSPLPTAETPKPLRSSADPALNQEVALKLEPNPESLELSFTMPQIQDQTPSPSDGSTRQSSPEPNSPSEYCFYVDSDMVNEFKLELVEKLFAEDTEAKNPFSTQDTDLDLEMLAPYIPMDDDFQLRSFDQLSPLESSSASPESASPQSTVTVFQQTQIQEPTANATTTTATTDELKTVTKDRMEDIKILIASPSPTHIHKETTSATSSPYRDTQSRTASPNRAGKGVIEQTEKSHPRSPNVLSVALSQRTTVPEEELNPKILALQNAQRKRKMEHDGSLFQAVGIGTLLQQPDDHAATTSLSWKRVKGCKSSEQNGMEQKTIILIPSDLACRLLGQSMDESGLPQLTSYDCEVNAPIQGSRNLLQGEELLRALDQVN
quantity: IC50 (nM)

Solved cases (4 shown):
- CN(C)c1ccc(NC(=O)c2noc3ccccc23)cc1: 24
- COc1ccc(NC(=O)c2noc3ccccc23)cc1: 40
- O=C(Nc1ccc(Cl)cc1)c1noc2ccccc12: 41
- CN(C)c1cccc(NC(=O)c2noc3ccccc23)c1: 7400

1. CC(=O)c1cccc(NC(=O)c2noc3ccccc23)c1
2. O=C(Nc1cccc(Cl)c1)c1noc2ccccc12
3. O=C(Nc1cccc(-c2ccccc2)c1)c1noc2ccccc12
Please rank these molecules by IC50 in descending order. Sort the labels as requested; that list is your answer.
3, 1, 2

I. O=C(Nc1ccccc1)c1noc2ccccc12
II. O=C(Nc1ccccn1)c1noc2ccccc12
III. O=C(Nc1ccccc1Cl)c1noc2ccccc12
IV. COc1ccccc1NC(=O)c1noc2ccccc12
Ranking field: IC50; order: falling. Use the labels to give the requested order.
IV, III, II, I

A. O=C(NC1CCCCC1)c1noc2ccccc12
B. COC(=O)c1cccc(NC(=O)c2noc3ccccc23)c1
API: POST /compare with A and B ; response names the item with higher IC50. Mark your selection by writing its label.
A

P. O=C(Nc1ccncc1)c1noc2ccccc12
Q. O=C(Nc1ccc2ccccc2c1)c1noc2ccccc12
R. CCn1c2ccccc2c2cc(NC(=O)c3noc4ccccc34)ccc21
Place the items in sequence of falling IC50. # answer = labels listed in requested order
P, R, Q

P. O=C1CCCc2cc(NC(=O)c3noc4ccccc34)ccc21
Q. O=C(Nc1ccc2scnc2c1)c1noc2ccccc12
Which has the higher IC50, P or Q ? Let me know the label of the one you choose.
P

A. O=C(Nc1cccc([N+](=O)[O-])c1)c1noc2ccccc12
B. COc1cccc(NC(=O)c2noc3ccccc23)c1
For the pair A and B , which entry has the numerically smaller recorded IC50? Kindly give the label for the entry you pick.
B
(B: 170 nM, A: 480 nM)
